- System: MCF7
- Test Method Notes: normalised growth rate inhibition (GR value) relative to DMSO control (GR (1 = untreated growth, 0 = cytostasis, <0 = cytotoxic)); higher = less growth inhibition
- Experimental Parameters: 3.33 µM; 72 h
Quick list: normalised growth rate inhibition per entry.

{"Smiles Structure": "CN1CCN(c2ccc3nc(-c4c(N)c5c(F)cccc5[nH]c4=O)[nH]c3c2)CC1", "normalised growth rate inhibition": 0.379}
{"Smiles Structure": "Cc1ccc2nc(NCCN)c3ncc(C)n3c2c1", "normalised growth rate inhibition": 0.0136}
{"Smiles Structure": "CN(c1ncccc1CNc1nc(Nc2ccc3c(c2)CC(=O)N3)ncc1C(F)(F)F)S(C)(=O)=O", "normalised growth rate inhibition": -0.0743}

###

- Test system: MCF10A
- Test Method Notes: normalised growth rate inhibition (GR value) relative to DMSO control (GR (1 = untreated growth, 0 = cytostasis, <0 = cytotoxic)); higher = less growth inhibition
- Experimental Parameters: 0.04 µM; 72 h
Output class 1 for normalised growth rate inhibition not less than 1; output class 0 otherwise.

{"Molecule": "CN(C)C/C=C/C(=O)Nc1cc2c(Nc3ccc(F)c(Cl)c3)ncnc2cc1O[C@H]1CCOC1 [afatinib]", "Answer Label": "class 0"}
{"Molecule": "COc1cc2c(Oc3ccc(NC(=O)C4(C(=O)Nc5ccc(F)cc5)CC4)cc3F)ccnc2cc1OCCCN1CCOCC1 [foretinib]", "Answer Label": "class 1"}
{"Molecule": "CCc1cc(Nc2nccc(-c3c(-c4ccc(OC)c(C(=O)Nc5c(F)cccc5F)c4)nc4ccccn34)n2)c(OC)cc1N1CCC(N2CCN(S(C)(=O)=O)CC2)CC1", "Answer Label": "class 0"}
{"Molecule": "Oc1cccc(-c2nc(N3CCOCC3)c3oc4ncccc4c3n2)c1 [PI-103]", "Answer Label": "class 0"}
{"Molecule": "COc1cc(N2CCC(N3CCN(C)CC3)CC2)ccc1Nc1ncc(Cl)c(Nc2ccccc2S(=O)(=O)C(C)C)n1 [NVP-TAE684]", "Answer Label": "class 0"}

###

- System: MDAMB231
- Test Method Notes: normalised growth rate inhibition (GR value) relative to DMSO control (GR (1 = untreated growth, 0 = cytostasis, <0 = cytotoxic)); higher = less growth inhibition
- Experimental Parameters: 0.12 µM; 72 h
Quick list: normalised growth rate inhibition per entry.
Measured Attribute: normalised growth rate inhibition

{"Molecule": "CNC(=O)c1cc(Oc2ccc(NC(=O)Nc3ccc(Cl)c(C(F)(F)F)c3)cc2)ccn1 [sorafenib]", "Val": 0.917}
{"Molecule": "CS(=O)(=O)N1CCN(Cc2cc3nc(-c4cccc5[nH]ncc45)nc(N4CCOCC4)c3s2)CC1 [GDC-0941]", "Val": 0.797}
{"Molecule": "COc1cc(C(=O)NC2CCN(C)CC2)ccc1Nc1ncc2c(n1)N(C1CCCC1)CCC(=O)N2C(C)C", "Val": 0.884}
{"Molecule": "C[C@@H](Oc1cc(-c2cnn(C3CCNCC3)c2)cnc1N)c1c(Cl)ccc(F)c1Cl [crizotinib]", "Val": 0.885}

###

- Test system: BT20
- Test Method Notes: normalised growth rate inhibition (GR value) relative to DMSO control (GR (1 = untreated growth, 0 = cytostasis, <0 = cytotoxic)); higher = less growth inhibition
- Experimental Parameters: 1.11 µM; 72 h

{"Compound": "CCC(=O)N1CCN(c2ccc(-n3c(=O)ccc4cnc5ccc(-c6cnc7ccccc7c6)cc5c43)cc2C(F)(F)F)CC1 [torin-1]", "normalised growth rate inhibition": -0.0682}
{"Compound": "Nc1cccc(-c2cc3c(Oc4cccc(O)c4)ncnc3[nH]2)c1 [TWS-119]", "normalised growth rate inhibition": 0.885}
{"Compound": "O=C(NOC[C@H](O)CO)c1ccc(F)c(F)c1Nc1ccc(I)cc1F", "normalised growth rate inhibition": 0.708}
{"Compound": "C[C@@H](Oc1cc(-c2cnn(C3CCNCC3)c2)cnc1N)c1c(Cl)ccc(F)c1Cl [crizotinib]", "normalised growth rate inhibition": 0.742}
{"Compound": "COc1cc(N2CCC(N3CCN(C)CC3)CC2)ccc1Nc1ncc(Cl)c(Nc2ccccc2S(=O)(=O)C(C)C)n1 [NVP-TAE684]", "normalised growth rate inhibition": 0.829}
{"Compound": "Cn1cc(-c2[nH]c3cc(NC(=O)[C@H](N)C4CCCCC4)cc4c3c2C=NNC4=O)cn1", "normalised growth rate inhibition": 0.931}
{"Compound": "COc1cc2c(Oc3ccc(NC(=O)C4(C(=O)Nc5ccc(F)cc5)CC4)cc3F)ccnc2cc1OCCCN1CCOCC1 [foretinib]", "normalised growth rate inhibition": -0.00958}
{"Compound": "Cc1nc(NC(=O)N2CCC[C@H]2C(N)=O)sc1-c1ccnc(C(C)(C)C(F)(F)F)c1", "normalised growth rate inhibition": 0.553}
{"Compound": "O=C(NOCC1CC1)c1ccc(F)c(F)c1Nc1ccc(I)cc1Cl", "normalised growth rate inhibition": 0.987}
{"Compound": "COC1=C2C[C@@H](C)C[C@H](OC)[C@H](O)[C@@H](C)/C=C(\\C)[C@H](OC(N)=O)[C@@H](OC)/C=C\\C=C(/C)C(=O)NC(=CC1=O)C2=O [geldanamycin]", "normalised growth rate inhibition": -0.0518}
{"Compound": "Cc1cc([C@@H](C)Nc2ccccc2C(=O)O)c2nc(N3CCOCC3)cc(=O)n2c1 [AZD-6482]", "normalised growth rate inhibition": 0.52}
{"Compound": "CN1CCN(CCOc2cc(OC3CCOCC3)c3c(Nc4c(Cl)ccc5c4OCO5)ncnc3c2)CC1 [saracatinib]", "normalised growth rate inhibition": 0.785}

The values you see were collected from the supplement of paper PMC5662764.
